Data provenance: ChEMBL document CHEMBL4513216

- System: Plasmodium berghei
- assayInfo: Screen against P. berghei liver stage (PbLuc), transformed with Luciferase, at 10uM
- Type: functional, HepG2
- conditionLabel: tested at 10 uM
Among all 69,000 compounds or so, about 8,600 (12%) showed an effect of 50% or more. The entries come from a sample that favours strong results as a whole.
Reported INHIBITION values for the following compounds.
// note: answer is a bare numeric in %

Quick check: INHIBITION of Cc1ccc(CNC(C)c2ccc(N3CCN(C)CC3)c(F)c2)o1 (centres undefined) ?
-11

----------
Reported INHIBITION values for the following compounds.
- System: Plasmodium berghei
- assayInfo: Screen against P. berghei liver stage (PbLuc), transformed with Luciferase, at 10uM
- Format: functional, HepG2
- conditionLabel: tested at 10 uM
The whole screen tested about 69,000 compounds, of which about 8,600 (12%) showed an effect of 50% or more. The entries come from a sample that favours strong results as a whole.
// note: answer is a bare numeric in %

Before answering, review these 5 worked examples.
Cc1cccc(CN2CCc3[nH]nc(C(=O)N4CCNC(=O)C4)c3C2)n1 :: 49.7
Cc1cccc(CN2CCC3(CCCN(Cc4cnn(C)c4)C3)C2)n1 (stereo not drawn) :: 64.7
CC1(C(=O)N2CCOCC2)CN(Cc2ccccn2)CCO1 (stereo not drawn) :: 44.4
O=C(c1ccccc1F)N1CCOC(c2nc(-c3ncccn3)no2)C1 (stereo not drawn) :: 18.9
CN(Cc1cc(C(C)(C)C)n[nH]1)Cc1c[nH]nc1-c1ccc(F)cc1 :: 47.6

Quick check: INHIBITION of Cn1cc(C2CCCN2C(=O)c2cnc(-c3ccccn3)s2)cn1 (stereo not drawn) ?
-59.7

Same thing, different compound: CCC(CO)N(Cc1ccc(F)cc1)Cc1c(C)nn(C)c1Cl (stereo not drawn)
-8.66

Same thing, different compound: Cc1n[nH]c(C)c1CCCN(C)Cc1c[nH]nc1-c1ccc(F)cc1
40.2

Same thing, different compound: CN(CC1(C)COC1)C(=O)c1cc(-c2ccn(C)n2)nc2ccccc12
18.2545

Same thing, different compound: Cc1cnc(N2CCOC3(CCCN(CC(=O)N(C)C)C3)C2)nc1 (stereo not drawn)
-29.8

Same thing, different compound: c1nc2c(c(-c3ccsc3)n1)CCN(Cc1ccoc1)CC2
20.1

Same thing, different compound: CC(=O)N1CCO[C@@H]2CN(S(=O)(=O)C3CC3)CC[C@@H]2C1
37.6

Same thing, different compound: CCC(CO)N(C/C(C)=C/c1ccco1)Cc1ccccn1 (stereo not drawn)
8.64

----------
- System: Plasmodium berghei
- assayInfo: Screen against P. berghei liver stage (PbLuc), transformed with Luciferase, at 10uM
- Format: functional, HepG2
- conditionLabel: tested at 10 uM
About 8,600 (12%) of roughly 69,000 compounds showed an effect of 50% or more. Only a selection was taken, and strong results are over-represented in it overall.
Reported INHIBITION values for the following compounds.
// note: answer is a bare numeric in %

Cc1cc2ccncc2n1CC1(O)CCN(C(=O)c2cccnc2)CC1 :: 9.98
COCC(=O)NC1CC2(CCN(CCN(C)C)CC2)c2ccccc21 (stereo unspecified) :: 53.9
COc1ccc(CN(C)Cn2cc(C)n(-c3cc(C)on3)c2=O)cc1 :: 19.3
COCC(=O)NC1CC2(CCN(Cc3ccco3)CC2)c2ccccc21 (stereo unspecified) :: 32.4
Cc1ccc2c(c1)C(NC(=O)N(C)C)CC21CCN(CC2CC2)CC1 (stereo unspecified) :: 22.4

Now examine the next entry.
Quick check: INHIBITION of COCC(=O)NC1CC2(CCN(CCO)CC2)c2ccccc21 (stereo unspecified) ?
33.1
